Examples of compounds with documented IC50 follow.
Biological target: GDP-bound KRAS protein (aa 1-169), containing both G12C and C118A amino acid substitutions (Homo sapiens (Human), UniProt P01116, C118A/G12C)
Sequence (P01116 other isoform, or with tags, fused parts or gaps G12C/C118A): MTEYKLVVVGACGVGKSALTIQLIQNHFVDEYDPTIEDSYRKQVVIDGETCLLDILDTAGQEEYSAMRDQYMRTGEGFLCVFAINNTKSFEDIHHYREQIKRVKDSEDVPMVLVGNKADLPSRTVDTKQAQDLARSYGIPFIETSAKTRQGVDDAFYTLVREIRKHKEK
Assay: Coupled Nucleotide Exchange Assay
Type: biochemical
Conditions: read-out: Coupled Exchange IC50 (20 h); 20 h compound pre-incubation

C=CC(=O)N1CC(NC(=O)Cn2cc(I)c3ccc(-c4ccccc4Cl)cc32)C1 | 590 nM
C=CC(=O)N1CC(NC(=O)Cn2c(C)c(-c3cccc4ncccc34)c3cc(Cl)ccc32)C1 | 520 nM
C=CC(=O)N1CC(NC(=O)Cn2cc(Cc3ccccc3)c3cc(Br)ccc32)C1 | 2050 nM
C=CC(=O)N1CC(N(C)C(=O)Cn2cc(I)c3cc(Br)ccc32)C1 | 440 nM
C=CC(=O)N1CC(NC(=O)Cn2ccc3cc(SC)ccc32)C1 | > 62500 nM
C=CC(=O)N1CC(NC(=O)Cn2cc(C(=O)NCCc3ccc(Cl)cc3Cl)c3cc(Br)cc(C)c32)C1 | 260 nM

Give IC50 for the following compound: `C=CC(=O)N1CC(NC(=O)Cn2cc(-c3ccc4ccccc4c3)c3cc(-c4ccc5ccccc5c4)cc(C)c32)C1` 16300 nM

Provide IC50 value for the following compound: `C=CC(=O)N1CC(NC(=O)Cn2c(C)c(C(=O)N3CCc4c(ccnc4OC)C3)c3cc(Cl)ccc32)C1` 180 nM

* * *

Test system: Phosphorylation of ERK1/2 in A549 cells
Test: Phospho-ERK1/2 MSD Assay (A549)
Type: cell-based
Conditions: Homo sapiens, A549, 4 h, read-out: pERK IC50 (4 h, A549), 4 h compound treatment
In this section we review reported IC50 values for a set of compounds.
Provide the reading as a plain figure in µM.

C=CC(=O)N1CC(NC(=O)Cn2c(C3CC3)c(C(=O)N3CCc4c(cccc4OC)C3)c3cc(Br)ccc32)C1 [Example 3-2] | 52.6

Now, please, on to the next compound.
Identify measured IC50 associated with C=CC(=O)N1CC(NC(=O)Cn2cc(C(=O)N3CCc4c(Br)cc(C)cc4C3)c3cc(Br)cc(C)c32)C1 [Example 80] 25.7

* * *

Target: GDP-bound KRAS protein (aa 1-169), containing both G12C and C118A amino acid substitutions (Homo sapiens (Human), UniProt P01116, C118A/G12C)
Assay: Coupled Nucleotide Exchange Assay
Type: biochemical
Details: read-out: Coupled Exchange IC50 (20 h); 20 h compound pre-incubation
ATTRIBUTE_MEASURED: IC50 (nM)
Use nM as the unit, but write only the number.

# count of solved cases: 5
C=CC(=O)N1CC(NC(=O)Cn2c3c(c4cc([N+](=O)[O-])ccc42)CCCCC3)C1 [Example 135] | 630
C=CC(=O)N1CC(NC(=O)Cn2cc(C(=O)N3CCc4c(cccc4OC)C3)c3cc(Cl)cc(Cl)c32)C1 [Example 69] | 130
C=CC(=O)N1CC(NC(=O)CN2Cc3c(n(C(C)=O)c4ccc(Br)cc34)C2)C1 [Example 242] | 7660
C=CC(=O)N1CC(NC(=O)Cn2c(C(=O)NCc3ccc(C(=O)O)s3)cc3cc(Br)ccc32)C1 [Example 225] | 19800
C=CC(=O)N1CC(NC(=O)Cn2c(C(=O)OC)c(I)c3cc(Br)ccc32)C1 [Example 111] | 350

Supply measured IC50 of C=CC(=O)N1CC(NC(=O)Cn2cc(I)c3cc(Br)c(C)cc32)C1 [Example 95] in your reply. 1090

Determine its reported IC50: C=CC(=O)N1CC(NC(=O)Cn2cc(-c3ccc4ccccc4c3)c3cc(Br)cc(C)c32)C1 [Example 264] 2750

// fetch IC50 given entry C=CC(=O)N1CC(NC(=O)Cn2ccc3cc(Cl)ccc32)C1 [Example 187] 7270

Supply IC50 value. Item: C=CC(=O)N1CC(NC(=O)Cn2cc(-c3cnn(C)c3)c3cc(Cl)ccc32)C1 [Example 197] 5510

* * *

Biological target: GDP-bound KRAS protein (aa 1-169), containing both G12C and C118A amino acid substitutions (Homo sapiens (Human), UniProt P01116, C118A/G12C)
Assay: Coupled Nucleotide Exchange Assay
Type: biochemical
Details: second Coupled Exchange column; read-out: Coupled Exchange IC50
pIC50: −log10 of the molar value.
Known pIC50 of a selection of compounds

Completed entries (count: 2):
C=CC(=O)N1CC(NC(=O)Cn2c3ccccc3c3ccc(Cl)nc32)C1 [Example 280] | < 3.60
C=C(CCO)C(=O)N1CC(NC(=O)Cn2c(C)c(C(=O)N3CCc4c(cccc4OC)C3)c3cc(Br)ccc32)C1 [Example 313] | < 3.60

State, in one line, measured pIC50 of C=CC(=O)N1CC(NC(=O)Cn2ccc3cc(CC)ccc32)C1 [Example 277] < 3.60

* * *

Biological target: GDP-bound KRAS protein (aa 1-169), containing both G12C and C118A amino acid substitutions (Homo sapiens (Human), UniProt P01116, C118A/G12C)
Assay: Coupled Nucleotide Exchange Assay
Assay type: biochemical
Conditions: read-out: Coupled Exchange IC50 (20 h); 20 h compound pre-incubation
ATTRIBUTE_MEASURED: IC50

C=CC(=O)N1CC(NC(=O)Cn2c3ccc(Br)cc3c3ccc(Cl)nc32)C1 | > 250 µM
C=CC(=O)N1CC(NC(=O)Cn2ccc3cc(F)ccc32)C1 | > 250 µM

Now consider the entry below.
Return IC50 (reported value) for this compound: `C=CC(=O)N1CC(NC(=O)Cn2ccc3cc(C#N)ccc32)C1` > 250 µM
